study-system: Adenosine receptor A2a (Homo sapiens)
test-summary: Displacement of [3H]ZM 241385 from human adenosine A2A receptor expressed in CHO cells at 10 uM after 60 mins by scintillation counting
Assay type: cell-based

[
  {
    "record-smiles": "Cc1ccc2c(c1)OC1(CCN(Cc3csc(N)c3C(=O)c3ccc(Cl)cc3)CC1)O2",
    "study-system": "Adenosine receptor A2a (Homo sapiens)",
    "inhibition / %": 3
  },
  {
    "record-smiles": "CC(C)(C)c1ccc2c(c1)OC1(CCN(Cc3csc(N)c3C(=O)c3ccc(Cl)cc3)CC1)O2",
    "study-system": "Adenosine receptor A2a (Homo sapiens)",
    "inhibition / %": 0
  },
  {
    "record-smiles": "Nc1scc(CN2CCc3[nH]c4ccc(Cl)cc4c3C2)c1C(=O)c1ccc(Cl)cc1",
    "study-system": "Adenosine receptor A2a (Homo sapiens)",
    "inhibition / %": 1
  },
  {
    "record-smiles": "Nc1scc(COc2ccccc2)c1C(=O)c1ccc(Cl)cc1",
    "study-system": "Adenosine receptor A2a (Homo sapiens)",
    "inhibition / %": 0
  },
  {
    "record-smiles": "Cc1cccc2c1OC1(CCN(Cc3csc(N)c3C(=O)c3ccc(Cl)cc3)CC1)O2",
    "study-system": "Adenosine receptor A2a (Homo sapiens)",
    "inhibition / %": 1
  },
  {
    "record-smiles": "Nc1scc(CSc2ccccc2)c1C(=O)c1ccc(Cl)cc1",
    "study-system": "Adenosine receptor A2a (Homo sapiens)",
    "inhibition / %": 1
  },
  {
    "record-smiles": "CN(Cc1c(-c2ccccc2)sc(N)c1C(=O)c1ccc(Cl)cc1)C(C)(C)C",
    "study-system": "Adenosine receptor A2a (Homo sapiens)",
    "inhibition / %": 1
  },
  {
    "record-smiles": "CN(Cc1csc(N)c1C(=O)c1ccc(Cl)cc1)c1ccc(Cl)cc1",
    "study-system": "Adenosine receptor A2a (Homo sapiens)",
    "inhibition / %": 0
  },
  {
    "record-smiles": "Nc1scc(CN2CCn3c(cc4cc(F)ccc43)C2)c1C(=O)c1ccc(Cl)cc1",
    "study-system": "Adenosine receptor A2a (Homo sapiens)",
    "inhibition / %": 2
  },
  {
    "record-smiles": "CC(C)N(Cc1c(-c2ccccc2)sc(N)c1C(=O)c1ccc(Cl)cc1)C(C)C",
    "study-system": "Adenosine receptor A2a (Homo sapiens)",
    "inhibition / %": 6
  }
]

----------
study-system: UniProt:P29274
Sequence (P29274 whole entry): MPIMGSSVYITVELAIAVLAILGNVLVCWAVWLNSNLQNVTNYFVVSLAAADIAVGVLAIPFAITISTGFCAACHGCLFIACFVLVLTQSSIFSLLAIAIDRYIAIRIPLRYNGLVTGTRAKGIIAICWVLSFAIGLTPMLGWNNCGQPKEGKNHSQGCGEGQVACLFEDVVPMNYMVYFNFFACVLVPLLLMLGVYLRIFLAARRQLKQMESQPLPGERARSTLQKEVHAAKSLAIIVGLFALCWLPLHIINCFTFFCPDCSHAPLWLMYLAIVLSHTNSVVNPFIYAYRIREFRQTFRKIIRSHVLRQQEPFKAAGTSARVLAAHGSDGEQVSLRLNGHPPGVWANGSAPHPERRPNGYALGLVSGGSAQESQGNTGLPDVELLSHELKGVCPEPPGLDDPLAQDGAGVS
test-summary: Displacement of [3H]ZM 241385 from human adenosine A2A receptor expressed in CHO cells at 10 uM after 60 mins by scintillation counting
Type: cell-based
# maps each entry to its inhibition
endpoint-label: inhibition (%)

[
  {
    "compound": "CC(C)c1ccc(OCc2csc(N)c2C(=O)c2ccc(Cl)cc2)cc1",
    "scale-unit": "%",
    "numeric-value": 1
  },
  {
    "compound": "Nc1scc(CN2CCn3c(cc4ccccc43)C2)c1C(=O)c1ccc(Cl)cc1",
    "scale-unit": "%",
    "numeric-value": 0
  },
  {
    "compound": "Nc1scc(COc2ccc(F)cc2)c1C(=O)c1ccc(Cl)cc1",
    "scale-unit": "%",
    "numeric-value": 1
  },
  {
    "compound": "Nc1scc(CN2CCN3c4ccc(Cl)cc4CC3C2)c1C(=O)c1ccc(Cl)cc1 (stereo unspecified)",
    "scale-unit": "%",
    "numeric-value": 4
  },
  {
    "compound": "CC(C)N(Cc1c(Br)sc(N)c1C(=O)c1ccc(Cl)cc1)C(C)C",
    "scale-unit": "%",
    "numeric-value": 1
  },
  {
    "compound": "CCCN(CCC)Cc1csc(N)c1C(=O)c1ccc(Cl)cc1",
    "scale-unit": "%",
    "numeric-value": 0
  },
  {
    "compound": "CN(C)Cc1c(-c2ccccc2)sc(N)c1C(=O)c1ccc(Cl)cc1",
    "scale-unit": "%",
    "numeric-value": 1
  },
  {
    "compound": "Cc1sc(N)c(C(=O)c2cccc(C(F)(F)F)c2)c1C",
    "scale-unit": "%",
    "numeric-value": 0
  },
  {
    "compound": "Cc1ccc(OCc2csc(N)c2C(=O)c2ccc(Cl)cc2)cc1",
    "scale-unit": "%",
    "numeric-value": 1
  },
  {
    "compound": "COc1ccc2c(c1)cc1n2CCN(Cc2csc(N)c2C(=O)c2ccc(Cl)cc2)C1",
    "scale-unit": "%",
    "numeric-value": 0
  },
  {
    "compound": "CN(Cc1ccccc1)Cc1c(-c2ccccc2)sc(N)c1C(=O)c1ccc(Cl)cc1",
    "scale-unit": "%",
    "numeric-value": 3
  }
]
